Reference for the values: PubChem BioAssay

Assay: S. cerevisiae growth inhibition in restrictive medium, OD615, pilot screen, restrictive growth control, yeast lifespan reduction project (AID 706);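 note: modified DeaD lifespan yeast strain shifted to restrictive glucose medium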
Conditions: OD615, 48 h, at 10 µM, hits give high values
Items are presented alongside their recorded growth inhibition.
MEASURED METRIC: growth inhibition (%)

CCOC(=O)Nc1ccc(S(=O)(=O)Nn2cnnc2)cc1 :: 1.07
Cc1ccc(C(C)C)c(OCCCN2CC(C)OC(C)C2)c1 (stereo unspecified) :: -13.4
O=C(CS(=O)(=O)c1cn(Cc2ccc(F)cc2)c2ccccc12)N1CCCCC1 :: -12.8
CCOCCCNC(=O)C(c1ccc(C)cc1)N(Cc1ccc2c(c1)OCO2)C(=O)c1cnccn1 (stereo unspecified) :: 3.09
CC1Cc2nc(SCC(=O)Nc3ccc4c(c3)OCO4)n(-c3ccc(F)cc3)c(=O)c2S1 (stereo unspecified) :: 5.03
Cc1[nH]c2ccccc2c(=O)c1CN1CCCCC1 :: -15.9
COc1cc(C2NC(=O)NC(C)=C2C(=O)OCC2CCCO2)ccc1O (stereo unspecified) :: -14.9
COc1ccc(NC(=O)CSc2nnc(-c3ccccc3)n2N)cc1 :: 3.57
CCOC(=O)c1ccccc1NC(=O)c1cccnc1 :: -21.3
Cn1c(CSc2nc3ccccc3s2)nnc1SCC(=O)NCCN1CCOCC1 :: 32.4
COc1ccc(S(=O)(=O)N2CCCC2C(=O)Nc2ccc(O)cc2)cc1 (stereo unspecified) :: 2.76
COc1ccc(C2CC(c3cccc(C)c3)n3ncnc3N2)cc1 (stereo unspecified) :: 5.56
Cc1nc2ccccc2c2oc(C(=O)N3CCc4ccccc4C3)cc12 :: -23.5
COc1ccc(N2CCN(c3oc(COc4ccccc4Cl)nc3C#N)CC2)cc1 :: -5.2
COc1ccccc1NCN1C(=O)CCC1=O :: 1.64
COc1ccc(-c2nn(-c3ccccc3)cc2/C=N/n2cnnc2)cc1OC :: 17.4
Cc1ccc(C)n1-n1c(C)nc2sc(-c3ccccc3)cc2c1=O :: -27.4
COc1cccc(C2c3c(oc4ccc(F)cc4c3=O)C(=O)N2CCCN2CCOCC2)c1 (stereo unspecified) :: -6.59
Oc1ccc2ccccc2c1CN1CCN(c2ccccc2F)CC1 :: -10.6
Cc1ccc2[nH]c(=O)c3cc(C(=O)N4CCN(C(=O)c5ccco5)CC4)sc3c2c1 :: 7.05
Cc1ccc(S(=O)(=O)NCCSc2nnnn2-c2ccc(C(N)=O)cc2)cc1 :: -2.84
O=C(Nc1nnc(C2CC2)s1)c1cc(-c2ccccc2)nn1-c1ccccc1 :: 30.2
O=C(Nc1nnc(-c2ccc(Cl)cc2)o1)C1CCCCC1 :: 8.62
Cc1cccc(-n2ncc3c(NCCCn4ccnc4)ncnc32)c1 :: -0.87
Cc1cc(N2CCN(C3CCCCC3)CC2)nc2cccc(O)c12 :: -31.3
COc1ccc(C(=O)Nc2nncs2)c(OC)c1 :: -11.7
COC(=O)c1cn(NC(=O)c2cccnc2)c(=O)c2ccccc12 :: 0.94
C/C=C/Cn1c(SCCCc2ccccc2)nc2c1c(=O)[nH]c(=O)n2C :: 1.29
COc1ccc(C2C(C(=O)Nc3cccnc3)=C(C)Nc3nc(-c4cccs4)nn32)cc1OC (stereo unspecified) :: -8.04
O=C(OCC(=O)c1ccc[nH]1)c1ccc(S(=O)(=O)N2CCCCC2)cc1 :: -4.03
CC(O)Cc1nsc(NC(=O)c2cccs2)n1 (stereo unspecified) :: -8.99
CCCCSc1nc(CCC)cc(=O)[nH]1 :: -14.4
O=C(CSc1ncnc2nc[nH]c12)c1ccc(Cl)cc1 :: 11.4
COC(=O)c1ccc(N=c2sc(C(=O)OC)cc(=O)n2C)cc1 :: -3.27
NC(=O)c1ccc(N2CCCCC2)c(N2C(=O)C3C4C=CC(C4)C3C2=O)c1 (stereo unspecified) :: -4.49
CC(C)c1nnc(NC(=O)Cc2cccs2)s1 :: -0.8
O=C(NCCc1csc(-c2ccccc2)n1)c1cccs1 :: 2.89
COc1ccc(C2(C(=O)NCCCN(C)C)CCOCC2)cc1 :: -23.9
COc1ccc(N2C(=O)CCC(C(=O)N3CCCCC3)C2c2ccc(OC)c(OC)c2)cc1 (stereo unspecified) :: -8.71
O=C(NCCN1CCOCC1)c1ccc2c(c1)N(Cc1ccccc1F)C(=O)CS2 :: 7.02
C=CCn1c(SCC(=O)c2cccs2)nc2sc(CC)cc2c1=O :: 5.1
Cc1nnc(NC(=O)C(C)Sc2nncn2C)s1 (stereo unspecified) :: -22.2
CC1CCN(C(=O)Cn2cc3c(n2)CCCC3)CC1 :: -2.46
CN(CCC#N)C(=O)Cn1nc(Cc2ccncc2)c2ccccc2c1=O :: -1.35
Cn1c(/C=N/n2cnnc2)nc2ccccc21 :: -2.04
CC(C)(C)NC(=O)c1cnn2c1NC(c1ccc(F)cc1)CC2C(F)(F)F (stereo unspecified) :: -18.1
